test system: Klebsiella pneumoniae; assay: Antimicrobial activity against Klebsiella pneumoniae ATCC 10031 by agar dilution method; type: functional; conditions: Klebsiella pneumoniae, ATCC 10031; read-out: MIC
Reported MIC by item:
Report as a plain number; the unit mg/L is understood.

substance.smiles	target.of.assay	unit.of.measure	MIC
CCCC(=O)O[C@H]1[C@H](C)O[C@@H](O[C@H]2[C@H](N(C)C)[C@@H](OC(=O)CCC(=O)O)[C@H](O[C@H]3[C@@H](CC=O)C[C@@H](C)[C@@H](O)/C=C/C=C/C[C@@H](C)OC(=O)C[C@@H](O)[C@@H]3OC)O[C@@H]2C)C[C@@]1(C)O	Klebsiella pneumoniae	mg/L	100
CO[C@@H]1[C@@H](O[C@@H]2O[C@H](C)[C@@H](O[C@H]3C[C@@](C)(O)[C@@H](OC(=O)CC(C)C)[C@H](C)O3)[C@H](N(C)C)[C@H]2O)[C@@H](CC=O)C[C@@H](C)[C@@H](OC(=O)CCl)/C=C/C=C/C[C@@H](C)OC(=O)C[C@H]1OC(C)=O	Klebsiella pneumoniae	mg/L	50
CCCC(=O)O[C@H]1/C=C/C=C/C[C@@H](C)OC(=O)C[C@@H](O)[C@H](OC)[C@@H](O[C@@H]2O[C@H](C)[C@@H](O[C@H]3C[C@@](C)(O)[C@@H](OC(=O)CCC)[C@H](C)O3)[C@H](N(C)C)[C@H]2O)[C@@H](CC=O)C[C@H]1C	Klebsiella pneumoniae	mg/L	50

// moving on: another record for MIC
Given the molecule "CO[C@@H]1[C@@H](O[C@@H]2O[C@H](C)[C@@H](O[C@H]3C[C@@](C)(O)[C@@H](OC(=O)CC(C)C)[C@H](C)O3)[C@H](N(C)C)[C@H]2O)[C@@H](CC=O)C[C@@H](C)[C@@H](OC(C)=O)/C=C/C=C/C[C@@H](C)OC(=O)C[C@H]1OC(C)=O" , what is its reported MIC?
50

###

target: Bacterial 70S ribosome (Bacteria) (UniProt P0A7V0+P60723+P0AG67+P0A7R5+P0A7R9+P0A7S3+P0A7S9+P0AG59+P0ADZ4+P0A7T3+P0AG63+P0A7T7+P0A7U3+P0A7U7+P68679+P0A7V3+P0A7V8+P0A7W1+P02358+P02359+P0A7W7+P0A7X3+P0A7J3+P0A7J7+P0AA10+P0ADY3+P02413+P0ADY7+P0AG44+P0C018+P0A7K6+P0A7L0+P0A7L3+P0AG48+P61175+P0ADZ0+P60624+P68919+P0A7L8+P0A7M2+P0A7M6+P60422+P0AG51+P0A7N1+P0A7M9+P0A7N4+P0A7N9+P0A7P5+P0A7Q1+Q2EEQ2+P0A7Q6+P60438+P62399+P0AG55+P0A7K2); experiment: Displacement of [14C]erythromycin from Escherichia coli ribosomes after 30 mins by scintillation spectrometer analysis
Reported pK50 by item:
Respond using a number only.

Answered examples (6):
substance.smiles	number
CCC(=O)O[C@H]1[C@H](C)O[C@@H](O[C@H]2[C@H](N(C)C)[C@@H](O)[C@H](O[C@H]3[C@@H](CC=O)C[C@@H](C)[C@@H](O)/C=C/C=C/C[C@@H](C)OC(=O)C[C@@H](OC(C)=O)[C@@H]3OC)O[C@@H]2C)C[C@@]1(C)O	5.7
CCCC(=O)O[C@H]1[C@H](C)O[C@@H](O[C@H]2[C@H](N(C)C)[C@@H](OC(C)=O)[C@H](O[C@H]3[C@@H](CC=O)C[C@@H](C)[C@@H](O)/C=C/C=C/C[C@@H](C)OC(=O)C[C@@H](OC(C)=O)[C@@H]3OC)O[C@@H]2C)C[C@@]1(C)O	4.7
CO[C@@H]1[C@@H](O[C@@H]2O[C@H](C)[C@@H](O[C@H]3C[C@@](C)(O)[C@@H](O)[C@H](C)O3)[C@H](N(C)C)[C@H]2O)[C@@H](CC=O)C[C@@H](C)[C@@H](OC(C)=O)/C=C/C=C/C[C@@H](C)OC(=O)C[C@H]1OC(C)=O	5.2
CCCC(=O)O[C@H]1[C@H](C)O[C@@H](O[C@H]2[C@H](N(C)C)[C@@H](O)[C@H](O[C@H]3[C@@H](CC=O)C[C@@H](C)[C@@H](OC(=O)CCl)/C=C/C=C/C[C@@H](C)OC(=O)C[C@@H](O)[C@@H]3OC)O[C@@H]2C)C[C@@]1(C)O	6
CO[C@@H]1[C@@H](O[C@@H]2O[C@H](C)[C@@H](O[C@H]3C[C@@](C)(O)[C@@H](OC(=O)CC(C)C)[C@H](C)O3)[C@H](N(C)C)[C@H]2OC(C)=O)[C@@H](CC=O)C[C@@H](C)[C@@H](O)/C=C/C=C/C[C@@H](C)OC(=O)C[C@H]1OC(C)=O	4.5
CCCC(=O)O[C@H]1[C@H](C)O[C@@H](O[C@H]2[C@H](N(C)C)[C@@H](OC(=O)CCC(=O)O)[C@H](O[C@H]3[C@@H](CC=O)C[C@@H](C)[C@@H](OC(=O)CCC(=O)O)/C=C/C=C/C[C@@H](C)OC(=O)C[C@@H](O)[C@@H]3OC)O[C@@H]2C)C[C@@]1(C)O	5.6

// moving on: another record for pK50
Given the compound "CCCC(=O)O[C@H]1[C@H](C)O[C@@H](O[C@H]2[C@H](N(C)C)[C@@H](O)[C@H](O[C@H]3[C@@H](CC=O)C[C@@H](C)[C@@H](OC(=O)CC)/C=C/C=C/C[C@@H](C)OC(=O)C[C@@H](O)[C@@H]3OC)O[C@@H]2C)C[C@@]1(C)O" , what is its reported pK50?
5.8

###

Reported IC50 by item:
biological target: Bacterial 70S ribosome; test: Displacement of [14C]erythromycin from Escherichia coli ribosomes after 30 mins by scintillation spectrometer analysis
Report as a plain number; the unit µM is understood.

substance.smiles	unit.of.measure	number
CO[C@@H]1[C@@H](O[C@@H]2O[C@H](C)[C@@H](O[C@H]3C[C@@](C)(O)[C@@H](OC(=O)CC(C)C)[C@H](C)O3)[C@H](N(C)C)[C@H]2O)[C@@H](CC=O)C[C@@H](C)[C@@H](OC(=O)C(Cl)Cl)/C=C/C=C/C[C@@H](C)OC(=O)C[C@H]1OC(C)=O	µM	1.4
CCCC(=O)O[C@H]1[C@H](C)O[C@@H](O[C@H]2[C@H](N(C)C)[C@@H](OC(C)=O)[C@H](O[C@H]3[C@@H](CC=O)C[C@@H](C)[C@@H](O)/C=C/C=C/C[C@@H](C)OC(=O)C[C@@H](O)[C@@H]3OC)O[C@@H]2C)C[C@@]1(C)O	µM	14.8
CCCC(=O)O[C@H]1[C@H](C)O[C@@H](O[C@H]2[C@H](N(C)C)[C@@H](OC(=O)CC)[C@H](O[C@H]3[C@@H](CC=O)C[C@@H](C)[C@@H](O)/C=C/C=C/C[C@@H](C)OC(=O)C[C@@H](O)[C@@H]3OC)O[C@@H]2C)C[C@@]1(C)O	µM	13.8

// moving on: another record for IC50
Given the compound "CCC(=O)O[C@H]1/C=C/C=C/C[C@@H](C)OC(=O)C[C@@H](OC(C)=O)[C@H](OC)[C@@H](O[C@@H]2O[C@H](C)[C@@H](O[C@H]3C[C@@](C)(O)[C@@H](OC(=O)CC(C)C)[C@H](C)O3)[C@H](N(C)C)[C@H]2O)[C@@H](CC=O)C[C@H]1C" , what is its reported IC50?
1.9

###

molecular target: Bacterial 70S ribosome (Bacteria) (UniProt P0A7V0+P60723+P0AG67+P0A7R5+P0A7R9+P0A7S3+P0A7S9+P0AG59+P0ADZ4+P0A7T3+P0AG63+P0A7T7+P0A7U3+P0A7U7+P68679+P0A7V3+P0A7V8+P0A7W1+P02358+P02359+P0A7W7+P0A7X3+P0A7J3+P0A7J7+P0AA10+P0ADY3+P02413+P0ADY7+P0AG44+P0C018+P0A7K6+P0A7L0+P0A7L3+P0AG48+P61175+P0ADZ0+P60624+P68919+P0A7L8+P0A7M2+P0A7M6+P60422+P0AG51+P0A7N1+P0A7M9+P0A7N4+P0A7N9+P0A7P5+P0A7Q1+Q2EEQ2+P0A7Q6+P60438+P62399+P0AG55+P0A7K2); experiment: Displacement of [14C]erythromycin from Escherichia coli ribosomes after 30 mins by scintillation spectrometer analysis
measure.name: pK50
Respond using a number only.

substance.smiles	measure.name	number
CCCC(=O)O[C@H]1[C@H](C)O[C@@H](O[C@H]2[C@H](N(C)C)[C@@H](OC(=O)CCC(=O)O)[C@H](O[C@H]3[C@@H](CC=O)C[C@@H](C)[C@@H](O)/C=C/C=C/C[C@@H](C)OC(=O)C[C@@H](O)[C@@H]3OC)O[C@@H]2C)C[C@@]1(C)O	pK50	5.7

Given the molecule "CO[C@@H]1[C@@H](O[C@@H]2O[C@H](C)[C@@H](O[C@H]3C[C@@](C)(O)[C@@H](OC(C)=O)[C@H](C)O3)[C@H](N(C)C)[C@H]2O)[C@@H](CC=O)C[C@@H](C)[C@@H](OC(C)=O)/C=C/C=C/C[C@@H](C)OC(=O)C[C@H]1O" , what is its reported pK50?
5.7

Taken from ChEMBL document CHEMBL3244414.
